Target: CaSla1-D1-D2
Assay: SPOT peptide array binding signal intensity (averaged, normalized) (arbitrary units (background-subtracted, floor 0; scale differs between SH3 domains)); higher = stronger binding of the SH3 domain to the peptide
metric: SPOT peptide array binding signal intensity
Give bare numbers.

# batch size: 6; output SPOT peptide array binding signal intensity per entry
1. RRASLFPRDPKRLRP
2. TPTSGPPLLPPRNTM
3. RTIRKLPLMSLSEYF
4. HRRRRVFSIPSLKSI
5. IPSRPAPKPPSSASA
6. KRKRFNLLLPKPYLT

1. 87.5
2. 185
3. 152
4. 49
5. 2030
6. 1
